B1: library; numbered along this chain (parent)
chain: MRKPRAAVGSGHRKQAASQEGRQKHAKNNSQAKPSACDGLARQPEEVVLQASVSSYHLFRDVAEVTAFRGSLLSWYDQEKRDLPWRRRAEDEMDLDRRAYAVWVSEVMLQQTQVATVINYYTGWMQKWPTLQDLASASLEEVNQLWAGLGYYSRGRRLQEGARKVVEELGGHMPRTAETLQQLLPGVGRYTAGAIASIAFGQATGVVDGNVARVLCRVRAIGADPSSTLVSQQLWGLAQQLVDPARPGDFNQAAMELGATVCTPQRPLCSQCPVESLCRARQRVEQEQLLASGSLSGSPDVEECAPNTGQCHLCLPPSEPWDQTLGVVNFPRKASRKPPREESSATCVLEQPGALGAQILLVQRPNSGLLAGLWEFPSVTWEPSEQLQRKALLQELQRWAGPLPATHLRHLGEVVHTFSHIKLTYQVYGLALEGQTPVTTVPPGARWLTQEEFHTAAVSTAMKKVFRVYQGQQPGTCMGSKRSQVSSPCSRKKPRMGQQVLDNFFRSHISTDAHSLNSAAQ

variants of: B1; test: 8OG:A repair function score (normalized; synonymous = 0, nonsense = -1) (normalized log-likelihood score); higher = more repair activity (WT-like); conditions: with 8OG:A DNA repair reporter (GFP) in HEK-293 MUTYH KO cells;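 further: cells sorted at 72 h after reporter transfection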
Readout Name: 8OG:A repair function score
Give bare numbers.

Here's what some known entries look like.
1) I118D ... -0.182
2) W321D ... -0.53
3) A220P ... -0.978
4) S74I ... -0.0694
5) M93N ... 0.00661
6) P339Q ... -0.0157

Each of the following entries comes with a recorded value; kindly state 8OG:A repair function score for each.
1. L289M
2. A36C

OUTPUT:
1. -0.0277
2. 0.066

Each of the following entries comes with a recorded value; kindly state 8OG:A repair function score for each.
1. V328Q
2. R97P
3. I509F

OUTPUT:
0.0461
-1.03
-0.0535
